pIC50: −log10 of the molar value.
A set of compounds tested on DGKζ (Homo sapiens, UniProt Q13574), with measured pIC50:

Example cases with answers are listed next.
* Cc1ccc(F)cc1N(CC1CC1)[C@H]1CC[C@H](N(C)c2c(C#N)c(=O)n(C)c3ccc(C#N)nc23)CC1 | 7.00 to 8.00
* Cc1cc(F)ccc1N(CC1CC(F)(F)C1)[C@H]1CC[C@H](N(C)c2c(C#N)c(=O)n(C)c3ccc(C#N)nc23)CC1 | 6.00 to 7.00
* Cn1c(=O)cc(N(C)[C@H]2CC[C@@H](N(CC3CCC3)c3ccc(F)cc3)CC2)c2nc(C#N)ccc21 | 6.00 to 7.00

Ask | Enter reported pIC50 observed with DGKζ (Homo sapiens, UniProt Q13574) for CN1C(=O)CN([C@H]2CC[C@H](N(CC3CC3)c3ccccc3)CC2)c2nc(C#N)ccc21
Reply | ≤ 6.00

Ask | And the next one, Cc1cc2c(cc1N(CC1CCC1)[C@H]1CC[C@@H](N(C)c3c(C#N)c(=O)n(C)c4ccc(Cl)nc34)CC1)OCO2 ?
Reply | ≤ 6.00

Ask | And the next one, Cn1c(=O)cc(N(C)[C@H]2CC[C@@H](N(c3ccc(F)cc3)C3CC3)CC2)c2nc(C#N)ccc21 ?
Reply | 6.00 to 7.00

Ask | And the next one, CC(C)CN(c1ccnn1C)[C@H]1CC[C@H](N(C)c2c(C#N)c(=O)n(C)c3ccc(C#N)nc23)CC1 ?
Reply | ≤ 6.00

Ref: patent US20230271954A1
